Reference source: PubChem BioAssay

assay name: small-molecule binders of probe aNOTCH2, primary screen, biochemical, small-molecule microarray, 635/667 nm fluorescence (AID 1121);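 note: score merges feature fluorescence read at 667 nm with its signal to noise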
assay setup: higher = more signal

# molecule, composite z-score
rows = [
    ("CC(C)OC(=O)C=C1C[C@@H](c2ccccc2C(F)(F)F)O[C@@H](c2ccccc2C(F)(F)F)O1", -0.216),
    ("[N-]=[N+]=NCc1ccccc1[C@@H]1OC(c2ccc(OCCCO)cc2)=N[C@]1(CCS(=O)(=O)c1ccccc1)C(=O)NCCN1CCOCC1", 0.0476),
    ("CCCC[C@H]1OB(O)C[C@H]2C1=C(COc1ccccc1)C[C@H]1C(=O)N(C)C(=O)[C@H]12", -0.0596),
    ("C=C(/C(=C/C[C@@H](OC(C)=O)c1ccc(OCCO)cc1)c1cnc2ccccc2c1)C(C)C", -0.17),
    ("CCN(CC)c1ccc(N2CC=CC34O[C@@H]5/C=C\\CCCOC(=O)C5[C@H]3C(=O)N(CCO)[C@@H]4C2=O)cc1 (stereo partly drawn)", -0.14),
    ("OC([C@@H]1CC(c2ccccc2)=NO1)[C@H]1CC(c2ccccc2)=NO1 (stereo partly drawn)", -0.0859),
    ("COC(=O)[C@@]1(Cc2ccc(F)cc2)[C@@H]2[C@@H](CC(=O)[C@H]2CC(=O)C(=O)N(C)C)CN1C(=O)c1ccccc1", -0.041),
    ("COc1ccc(CCN2C(=O)[C@@]3(Cc4ccccc42)c2ccccc2C(=O)N(Cc2ccccc2C(F)(F)F)[C@H]3c2ccc(CO)cc2)cc1", -0.193),
]
